biological target: Calcium/calmodulin-dependent protein kinase type 1G (Homo sapiens) (UniProt Q96NX5)
Sequence (Q96NX5 whole entry): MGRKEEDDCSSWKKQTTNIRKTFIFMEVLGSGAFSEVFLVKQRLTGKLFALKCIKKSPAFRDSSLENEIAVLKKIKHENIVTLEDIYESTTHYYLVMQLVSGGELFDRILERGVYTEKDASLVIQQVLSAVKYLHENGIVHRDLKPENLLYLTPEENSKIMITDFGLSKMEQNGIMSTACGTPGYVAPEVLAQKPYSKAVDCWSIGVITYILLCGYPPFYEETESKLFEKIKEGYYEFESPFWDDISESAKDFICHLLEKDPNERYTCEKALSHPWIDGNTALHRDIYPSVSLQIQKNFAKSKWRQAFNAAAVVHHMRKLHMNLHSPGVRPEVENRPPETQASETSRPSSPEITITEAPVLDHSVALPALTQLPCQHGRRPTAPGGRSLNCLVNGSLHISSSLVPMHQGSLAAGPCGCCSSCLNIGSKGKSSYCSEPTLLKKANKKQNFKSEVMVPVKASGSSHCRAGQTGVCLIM
property.name: ΔTm (°C)
Give bare numbers, in °C.

C/C(O)=C(\C#N)C(=O)Nc1cc(Br)ccc1Br	-0.1
Oc1ccc(-c2nc(-c3ccc(F)cc3)c(-c3ccncc3)[nH]2)cc1	-0.1

Shifting focus to the compound that follows.
Incoming: Read the entry CSc1nc(-c2ccc(F)cc2)c(-c2ccnc(NC(C)c3ccccc3)c2)[nH]1 (racemic) and write its reported ΔTm.
Outgoing: 1.9

###

List of ΔTm tested on Calcium/calmodulin-dependent protein kinase type II subunit alpha (Homo sapiens).
One number for each entry, in °C.

Please review the entries below; each comes with its answer.
CC(C)n1cnc2/c(=N/c3cccc(Cl)c3)nc(NCCO)[nH]c21	0.7
O=C1C=C2C(=Nc3c2c2c(c4c3=NC3=C4CCC=C3)C=NC=2)CC1	3.7

Record ΔTm per entry; entries follow.
1. COc1cc2ncnc(Nc3cccc(Br)c3)c2cc1OC
2. COc1cc(O)c2c(c1)oc(=O)c1c3cc(O)c(O)cc3oc21
3. COc1cc(/C=C/C(=O)CC(=O)/C=C/c2ccc(O)c(OC)c2)ccc1O
4. CCOc1cc(/C=C(\C#N)C(N)=O)cc(CSc2ccccc2)c1O
5. Cc1[nH]c(/C=C2\C(=O)Nc3ccc(S(=O)(=O)N(C)c4cccc(Cl)c4)cc32)c(C)c1C(=O)N1CCN(C)CC1

Outgoing:
0.5
1.2
-0.1
-0.2
3
